System: MvaT
Experiment: PBM 8-mer E-score (mean of HK and ME arrays) (E-score (dimensionless, -0.5 to 0.5)); higher = stronger relative binding preference
Over roughly 33,000 sequences, “E-score (dimensionless, -0.5 to 0.5)” has its median near -0.058; the highest 2% begin near 0.35. Shown is part of a subset that was picked to be rich in the highest values.
Categorize each record by its PBM 8-mer E-score using class 0: < -0.09; class 1: ≥ -0.09 and < 0.2; class 2: ≥ 0.2

Reference set, count: 5
{"biosequence": "CCTTAATA", "label value": "class 2"}
{"biosequence": "CTCTATAA", "label value": "class 1"}
{"biosequence": "AGTTTTAC", "label value": "class 2"}
{"biosequence": "ATCCTATA", "label value": "class 1"}
{"biosequence": "GATAAGGA", "label value": "class 1"}

Task: For ACGTTAGC , which PBM 8-mer E-score bin applies?
Result: class 0

----------
Tested on: MvaT
Assay: PBM 8-mer E-score (mean of HK and ME arrays) (E-score (dimensionless, -0.5 to 0.5)); higher = stronger relative binding preference
In all, about 33,000 sequences were measured (“E-score (dimensionless, -0.5 to 0.5)”: median about -0.058, highest 2% from about 0.35 on). Shown is part of a subset that was picked to be rich in the highest values.
Label rule, in plain words: PBM 8-mer E-score of 0.04 and up is class 1, under 0.04 is class 0.

Reference set, count: 10
{"biosequence": "TACGAGCA", "label value": "class 0"}
{"biosequence": "AAAATCAA", "label value": "class 1"}
{"biosequence": "GATTTTAA", "label value": "class 1"}
{"biosequence": "GTTGGCCA", "label value": "class 0"}
{"biosequence": "AAAAAGTA", "label value": "class 1"}
{"biosequence": "GTTATACA", "label value": "class 1"}
{"biosequence": "AGATATAA", "label value": "class 1"}
{"biosequence": "ATCTATTG", "label value": "class 1"}
{"biosequence": "GATTATGC", "label value": "class 1"}
{"biosequence": "GACCCTAC", "label value": "class 0"}

Task: # bool: PBM 8-mer E-score of GTTGTACA >= 0.04
Result: class 1

Task: # bool: PBM 8-mer E-score of AAATATGA >= 0.04
Result: class 1

Task: # bool: PBM 8-mer E-score of AAAGAGTC >= 0.04
Result: class 0

----------
Test system: MvaT
Assay: PBM 8-mer E-score (mean of HK and ME arrays) (E-score (dimensionless, -0.5 to 0.5)); higher = stronger relative binding preference
In all, about 33,000 sequences were measured (“E-score (dimensionless, -0.5 to 0.5)”: median about -0.058, highest 2% from about 0.35 on). For the sample, the highest values were picked, then their nearest neighbours and some sequences at random.
Label rule, in plain words: PBM 8-mer E-score of 0.2 and up is 1 (yes), under 0.2 is 0 (no).

Task: # bool: PBM 8-mer E-score of ATATATGC >= 0.2
Result: 1 (yes)

Task: # bool: PBM 8-mer E-score of ACATATGC >= 0.2
Result: 0 (no)

----------
Below is a list of entries, each paired with its recorded PBM 8-mer E-score value.
Tested on: MvaT
Experiment: PBM 8-mer E-score (mean of HK and ME arrays) (E-score (dimensionless, -0.5 to 0.5)); higher = stronger relative binding preference
The full ranking holds about 33,000 sequences; the median of “E-score (dimensionless, -0.5 to 0.5)” is about -0.058, and the highest 2% start at about 0.35. The full list was thinned out, with the highest values kept by preference.
Provide a numeric answer; units are not to be included.

{"biosequence": "TCTATACA", "PBM 8-mer E-score": 0.136}
{"biosequence": "TTGTTAAA", "PBM 8-mer E-score": 0.346}
{"biosequence": "TCATCGAA", "PBM 8-mer E-score": -0.15}
{"biosequence": "ATACGGCG", "PBM 8-mer E-score": -0.11}
{"biosequence": "ACAGATGA", "PBM 8-mer E-score": -0.0583}
{"biosequence": "TGCGTCAA", "PBM 8-mer E-score": -0.0324}
{"biosequence": "ATAGTGTG", "PBM 8-mer E-score": 0.179}
{"biosequence": "TTATTAAA", "PBM 8-mer E-score": 0.409}
{"biosequence": "CGATTAAA", "PBM 8-mer E-score": 0.218}
{"biosequence": "CAAAGTAG", "PBM 8-mer E-score": 0.0209}

Consider the additional sequence presented here.
Task: Given the sequence CCTGCGCC , what is its reported PBM 8-mer E-score?
Result: -0.28

----------
Below is a list of entries, each paired with its recorded PBM 8-mer E-score value.
System: MvaT
Assay: PBM 8-mer E-score (mean of HK and ME arrays) (E-score (dimensionless, -0.5 to 0.5)); higher = stronger relative binding preference
In all, about 33,000 sequences were measured (“E-score (dimensionless, -0.5 to 0.5)”: median about -0.058, highest 2% from about 0.35 on). This excerpt belongs to a sample that is enriched for the highest values.
Provide a numeric answer; units are not to be included.

Some solved entries appear below for comparison.
{"biosequence": "CTGTTTAA", "reported measurement": 0.302}
{"biosequence": "AAGTTTTA", "reported measurement": 0.318}
{"biosequence": "GATATAGA", "reported measurement": 0.206}
{"biosequence": "GTAGTATA", "reported measurement": 0.319}
{"biosequence": "ATAGTATG", "reported measurement": 0.21}
{"biosequence": "GAGTTTAA", "reported measurement": 0.235}

Task: Given the sequence CTATTTCA , what is its reported PBM 8-mer E-score?
Result: 0.00869

Task: Given the sequence AAAGTATA , what is its reported PBM 8-mer E-score?
Result: 0.41

Task: Given the sequence AATGTATA , what is its reported PBM 8-mer E-score?
Result: 0.366

Task: Given the sequence AACGCCAG , what is its reported PBM 8-mer E-score?
Result: -0.15

Task: Given the sequence AATATAGT , what is its reported PBM 8-mer E-score?
Result: 0.398

Task: Given the sequence CAGGAGAG , what is its reported PBM 8-mer E-score?
Result: -0.196

Task: Given the sequence GATGTATA , what is its reported PBM 8-mer E-score?
Result: 0.289

Task: Given the sequence CATGTATA , what is its reported PBM 8-mer E-score?
Result: 0.264

----------
System: MvaT
Test: PBM 8-mer E-score (mean of HK and ME arrays) (E-score (dimensionless, -0.5 to 0.5)); higher = stronger relative binding preference
In all, about 33,000 sequences were measured (“E-score (dimensionless, -0.5 to 0.5)”: median about -0.058, highest 2% from about 0.35 on). Only a selection was taken, and the highest values are over-represented in it overall.
quantity: PBM 8-mer E-score
Provide a numeric answer; units are not to be included.

{"biosequence": "TAAATCTA", "PBM 8-mer E-score": 0.183}
{"biosequence": "TAAATATA", "PBM 8-mer E-score": 0.442}
{"biosequence": "ACATAATA", "PBM 8-mer E-score": 0.401}
{"biosequence": "GAAATATC", "PBM 8-mer E-score": 0.227}
{"biosequence": "TAATAATA", "PBM 8-mer E-score": 0.477}
{"biosequence": "GACAAATC", "PBM 8-mer E-score": -0.0221}

Task: // lookup PBM 8-mer E-score | system=MvaT | key= AAAATACT
Result: 0.272

Task: // lookup PBM 8-mer E-score | system=MvaT | key= CCCGTACA
Result: -0.0141

Task: // lookup PBM 8-mer E-score | system=MvaT | key= GCATAATA
Result: 0.339

----------
Below is a list of entries, each paired with its recorded PBM 8-mer E-score value.
Test system: MvaT
Assay: PBM 8-mer E-score (mean of HK and ME arrays) (E-score (dimensionless, -0.5 to 0.5)); higher = stronger relative binding preference
In all, about 33,000 sequences were measured (“E-score (dimensionless, -0.5 to 0.5)”: median about -0.058, highest 2% from about 0.35 on). The sample holds the highest values, similar sequences and a random draw of the others, so the mix is not that of the screen.
Provide a numeric answer; units are not to be included.

Task: Given the sequence AAAACCGC , what is its reported PBM 8-mer E-score?
Result: 0.058

Task: Given the sequence CATTGTGG , what is its reported PBM 8-mer E-score?
Result: -0.0595

----------
Test system: MvaT
Test: PBM 8-mer E-score (mean of HK and ME arrays) (E-score (dimensionless, -0.5 to 0.5)); higher = stronger relative binding preference
Over roughly 33,000 sequences, “E-score (dimensionless, -0.5 to 0.5)” has its median near -0.058; the highest 2% begin near 0.35. The entries come from a sample that favours the highest values as a whole.
Below is a list of entries, each paired with its recorded PBM 8-mer E-score value.

Some solved entries appear below for comparison.
{"biosequence": "CATAATGA", "reported measurement": 0.233}
{"biosequence": "GAAATAAC", "reported measurement": 0.3}
{"biosequence": "GATAATGC", "reported measurement": 0.151}
{"biosequence": "AAAAAAAT", "reported measurement": 0.227}
{"biosequence": "AAAAATGT", "reported measurement": 0.0973}

Consider the additional sequence presented here.
Task: Given the sequence GATAATGA , what is its reported PBM 8-mer E-score?
Result: 0.225
